- Tested on: HeLa cells
- experimental.protocol: Cell cycle assay in HeLa cells
- Type: cell-based, human
- stated.conditions: HeLa cells, 150 nM oligomeric compound, 24 hours, relative to untreated control (UTC = 100)
In the oligonucleotide strings, read from the 5' end, every base follows the letter of its sugar. An asterisk marks phosphorothioate; unmarked linkages are phosphodiester. Other units and linkages are bracketed, terminal groups are in braces. A string of capitals states the bases alone. e = 2'-O-(2-methoxyethyl) (MOE); [5mC] = 5-methylcytosine; d = 2'-deoxy (DNA)
recorded.endpoint: % cells in cell cycle phase G1 (%)
Number only, in %; omit the unit.

Exam item: Identify % cells in cell cycle phase G1 associated with the substance 340350 (antisense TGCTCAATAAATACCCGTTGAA; all 2'-MOE, all phosphorothioate, methylation of C not given here) [compound 340350]
Marked response: 183

Exam item: Identify % cells in cell cycle phase G1 associated with the substance 338769 (antisense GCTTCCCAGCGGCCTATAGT; all 2'-MOE, all phosphorothioate, methylation of C not given here) [compound 338769]
Marked response: 171

Exam item: Identify % cells in cell cycle phase G1 associated with the substance 327906 (antisense eT*e[5mC]*eA*eT*eA*eG*e[5mC]*e[5mC]*e[5mC]*eT*eG*eT*eA*e[5mC]*eA*eA*eT*eG*e[5mC]*eT*eG*e[5mC]*eT) [compound 327906]
Marked response: 153

Exam item: Identify % cells in cell cycle phase G1 associated with the substance 327956 (antisense e[5mC]*eA*e[5mC]*eA*eG*eT*eT*eG*e[5mC]*e[5mC]*eA*eG*e[5mC]*eT*eG*eA*eG*eA*eT*eT*eA) [compound 327956]
Marked response: 124

Exam item: Identify % cells in cell cycle phase G1 associated with the substance 328676 (eA*e[5mC]*e[5mC]*eT*e[5mC]*d[5mC]*d[5mC]*dA*dG*d[5mC]*d[5mC]*dA*dA*dT*d[5mC]*e[5mC]*eA*eT*eG*eT; antisense) [compound 328676]
Marked response: 99

Exam item: Identify % cells in cell cycle phase G1 associated with the substance 327946 (antisense eA*eG*eG*e[5mC]*eG*eA*eA*eG*eG*eA*eT*eG*eA*e[5mC]*eA*eA*eA*eG*eG*eG*eA*eA) [compound 327946]
Marked response: 90
